Attribution: patent US8815503B2

system: PBMC; experiment: 193 ssRNA 4mer-motif library screen: IL-12 (IL-12p40) production in PBMC of six donors, poly-L-Arg complexation, ELISA at 44 hours, IL-12 index and adjusted IL-12 index; format: cell-based, human; parameters: key: IL-12 index (ratio to 9.2sense) minus donor mean, averaged over 6 donors; details: 193 ssRNA oligonucleotide library; data from six individual donors summarized; ascending order
measuredEndpoint: Adjusted IL-12 index Mean
Just the number, please.

Record summary for AAAAAAAACGAAAAAAAAA (RNA, backbone not given here) [ANP-Oligo 006] : reported Adjusted IL-12 index Mean = −0.63

# Adjusted IL-12 index Mean (sequence: AAAAAAAGGUUAAAAAAAA (RNA, backbone not given here) [ANP-Oligo 133] ) is 1.51

// Adjusted IL-12 index Mean value for AAAAAAAAGUCAAAAAAAA (RNA, backbone not given here) [ANP-Oligo 035] : −0.22

The reported Adjusted IL-12 index Mean of the sequence AAAAAAAAUGGAAAAAAAA (RNA, backbone not given here) [ANP-Oligo 045] was −0.29

* * *

system: PBMC; test: 193 ssRNA 4mer-motif library screen: IL-12 (IL-12p40) production in PBMC of six donors, poly-L-Arg complexation, ELISA at 44 hours, IL-12 index and adjusted IL-12 index; format: cell-based, human; set-up: key: IL-12 index (ratio to 9.2sense) minus donor mean, averaged over 6 donors; settings: 193 ssRNA oligonucleotide library; data from six individual donors summarized; ascending order
Exercise: state measured Adjusted IL-12 index Mean for each of the sequences provided.

Documented Adjusted IL-12 index Mean of AAAAAAAUACGAAAAAAAA (RNA, backbone not given here) [ANP-Oligo 150] : −0.3

Reported Adjusted IL-12 index Mean for AAAAAAAACCCAAAAAAAA (RNA, backbone not given here) [ANP-Oligo 017] was −0.66

Memo: AAAAAAACAACAAAAAAAA (RNA, backbone not given here) [ANP-Oligo 050] , reported Adjusted IL-12 index Mean: −0.64

Documented Adjusted IL-12 index Mean of AAAAAAAACCGAAAAAAAA (RNA, backbone not given here) [ANP-Oligo 018] : −0.68

Kindly note the recorded Adjusted IL-12 index Mean for AAAAAAAGUCUAAAAAAAA (RNA, backbone not given here) [ANP-Oligo 139] , which is 0.05

Item: AAAAAAAAGUGAAAAAAAA (RNA, backbone not given here) [ANP-Oligo 036] | Adjusted IL-12 index Mean: −0.12

Per the record, AAAAAAACGUCAAAAAAAA (RNA, backbone not given here) [ANP-Oligo 083] has Adjusted IL-12 index Mean of −0.27

get_value(item= AAAAAAAUUGCAAAAAAAA (RNA, backbone not given here) [ANP-Oligo 188] , readout=Adjusted IL-12 index Mean) returns 1.62

* * *

system: PBMC; assay: 193 ssRNA 4mer-motif library screen: IL-12 (IL-12p40) production in PBMC of six donors, poly-L-Arg complexation, ELISA at 44 hours, IL-12 index and adjusted IL-12 index; assay type: cell-based, human; set-up: key: IL-12 index (ratio to 9.2sense) minus donor mean, averaged over 6 donors; conditions: 193 ssRNA oligonucleotide library; data from six individual donors summarized; ascending order
// assign y if Adjusted IL-12 index Mean falls strictly below -0.5, else n (ties count as n)

[ask] Confirm or reject: Adjusted IL-12 index Mean of AAAAAAAAGCCAAAAAAAA (RNA, backbone not given here) [ANP-Oligo 029] lies strictly below -0.5
[reply] y

[ask] Regarding AAAAAAACUAUAAAAAAAA (RNA, backbone not given here) [ANP-Oligo 088] , kindly confirm whether its Adjusted IL-12 index Mean is beneath -0.5.
[reply] n

[ask] Given AAAAAAAGCACAAAAAAAA (RNA, backbone not given here) [ANP-Oligo 110] , is recorded Adjusted IL-12 index Mean strictly lower than -0.5?
[reply] y

[ask] For AAAAAAAAGAAAAAAAAAA (RNA, backbone not given here) [ANP-Oligo 003] , is the recorded Adjusted IL-12 index Mean below the cut-off of -0.5?
[reply] y

[ask] Please let me know if AAAAAAAGUCCAAAAAAAA (RNA, backbone not given here) [ANP-Oligo 137] shows Adjusted IL-12 index Mean below -0.5.
[reply] n

[ask] Record AAAAAAAGUGUAAAAAAAA (RNA, backbone not given here) [ANP-Oligo 142] : is its Adjusted IL-12 index Mean strictly below -0.5?
[reply] n

[ask] Would you kindly verify if Adjusted IL-12 index Mean of AAAAAAAGCCCAAAAAAAA (RNA, backbone not given here) [ANP-Oligo 113] is strictly less than -0.5?
[reply] y

[ask] Given the entry AAAAAAAGAAUAAAAAAAA (RNA, backbone not given here) [ANP-Oligo 100] , would its reported Adjusted IL-12 index Mean be below -0.5?
[reply] n
